Assay: Aqueous solubility
Type: physicochemical
Details: in water

>  <query smiles>
CCc1cc(-c2noc(-c3cc(OC)nc(C4CCCC4)c3)n2)cc(C)c1OC[C@@H](O)CO

>  <solubility>
~0.06 µg/mL

$$$$
